biological target: Sialidase-3 (Homo sapiens, UniProt Q9UQ49); assay: Inhibition of human neuraminidase 3 assessed as inhibition of 4-methylumbelliferyl-alpha-D-N-acetylneuraminic acid hydrolysis
pIC50: −log10 of the molar value.
Endpoint: pIC50

I. CC(=O)N[C@H]1[C@H]([C@H](O)[C@H](O)CNC(=O)c2ccccc2)OC(C(=O)O)=C[C@@H]1O
II. CC(=O)N[C@H]1[C@H]([C@H](O)[C@H](O)CO)OC(C(=O)O)=C[C@@H]1O [NEU5AC2EN]
Task item: Which item exceeds the other in pIC50, I or II ? When you have decided, please share the label of that item.
Reply: II
(II: 4.37, I: 3.49)

====

Target chain: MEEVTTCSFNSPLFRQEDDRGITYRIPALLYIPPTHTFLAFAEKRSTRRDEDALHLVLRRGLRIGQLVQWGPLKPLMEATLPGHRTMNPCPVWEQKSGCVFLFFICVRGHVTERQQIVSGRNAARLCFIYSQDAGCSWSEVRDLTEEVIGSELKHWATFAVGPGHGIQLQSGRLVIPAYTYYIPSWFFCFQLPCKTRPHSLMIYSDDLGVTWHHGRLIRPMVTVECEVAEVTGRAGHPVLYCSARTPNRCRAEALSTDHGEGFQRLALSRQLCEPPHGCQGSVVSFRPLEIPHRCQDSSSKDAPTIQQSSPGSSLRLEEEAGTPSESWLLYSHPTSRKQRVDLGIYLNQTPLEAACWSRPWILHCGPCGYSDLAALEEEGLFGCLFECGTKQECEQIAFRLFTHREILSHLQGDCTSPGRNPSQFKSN
pIC50: −log10 of the molar value.
Endpoint: pIC50

Compound String: CC(=O)N[C@H]1[C@H]([C@H](O)[C@H](O)CN=[N+]=[N-])OC(C(=O)O)=C[C@@H]1O
pIC50: 4.15

Compound String: [N-]=[N+]=NCC(=O)N[C@H]1[C@H]([C@H](O)[C@H](O)CO)OC(C(=O)O)=C[C@@H]1O
pIC50: 4.68

1. CC(=O)N[C@H]1[C@H]([C@H](O)[C@H](O)Cn2cc(COc3ccccc3)nn2)OC(C(=O)O)=C[C@@H]1O
2. CCOc1cn(C[C@@H](O)[C@@H](O)[C@@H]2OC(C(=O)O)=C[C@H](O)[C@H]2NC(C)=O)nn1
3. CCCCCCc1cn(C[C@@H](O)[C@@H](O)[C@@H]2OC(C(=O)O)=C[C@H](O)[C@H]2NC(C)=O)nn1
Task item: Arrange these 3 molecules in increasing order of pIC50. Reply with the labels, ordered as the question asks.
Reply: 2, 1, 3

a. CCOC(OCC)c1cn(C[C@@H](O)[C@@H](O)[C@@H]2OC(C(=O)O)=C[C@H](O)[C@H]2NC(C)=O)nn1
b. CC(=O)N[C@H]1[C@H]([C@H](O)[C@H](O)Cn2cc(C(C)(C)O)nn2)OC(C(=O)O)=C[C@@H]1O
Task item: Compare the recorded pIC50 of a and b ; state which is larger. The response must carry the label of the picked entry.
Reply: a
(a: 3.89, b: 3.52)

====

molecular target: Sialidase-3 (Homo sapiens)
# maps each entry to its IC50

Compound String: CCCCCCc1cn(CC(=O)N[C@H]2[C@H]([C@H](O)[C@H](O)CO)OC(C(=O)O)=C[C@@H]2O)nn1
IC50: > 500 µM

Compound String: O=C(Cn1cc(CCCO)nn1)N[C@H]1[C@H]([C@H](O)[C@H](O)CO)OC(C(=O)O)=C[C@@H]1O
IC50: > 500 µM

Compound String: O=C(Cn1cc(COc2ccccc2)nn1)N[C@H]1[C@H]([C@H](O)[C@H](O)CO)OC(C(=O)O)=C[C@@H]1O
IC50: > 500 µM

From here, focus on the item given below.
Task item: Give IC50 for CC(=O)N[C@H]1[C@H]([C@H](O)[C@H](O)Cn2cc(CCCO)nn2)OC(C(=O)O)=C[C@@H]1O tested on Sialidase-3 (Homo sapiens).
Reply: 500 µM
